Procedure Summary: yeast display, Sf9 membrane polyspecificity reagent, FACS + sequencing; frameworks hold sequencing errors
Quantity Kind: polyreactivity (PSR sort gate)

QVQLVESGGGLVQAGGSLRLSSAASGLILYSYAMGWYRQAPGKERELVADISSGGITNYADSVKGRFTISRDNAKNTVYLQMNSLKPEDTAVYYCAADTRPVNYILYDYWGQGTQVTVSS ... low polyreactivity
QVQLVESGGGLVQAGGSLRLSCAASGRTFGGNAMGWYRQAPGKEREYVAAISRSGTSTYYADSVKGRFTISRDNAKNTVYLQMNSLKPEDTGVYYCAALNYHKFAHKSDYWGQGTQVTVSS ... low polyreactivity
QVQLVESGGGLVQAGGSLRLSCAASGFISTYYAMGWYRQAPGKERELVAAISWNGGSTYYADSVKGRFTISRDNAKNTVYLQMNSLKPEDTADYYCAAYLGKWRQFYSSDYDYWGQGTQVTVSS ... low polyreactivity
QVQLVESGGGLVQAGGSLRLSCAASGRILTFYGLGWYRQAPGKERELVAAISNGGSTYYADSVKGRFTISRDNAKNTVYLQMNSLKPEDTAVYYCAKRILTAPRRNSGYDYWGQGTQVTVSS ... low polyreactivity
QVQLVESGGGLVQAGGSLRLSCAASGSIFYSYAKGSYLQAPGKERELVADITFSGVSTYYADSVKGRFTISRDNAKNTVYLQMKSLKTEDTAVYYGAADGVSRWYLYRWYDYDYWGQGTQVTVSS ... low polyreactivity

Each sequence below has a recorded value; state its polyreactivity (PSR sort gate).
1. QVQLVESGGGLVQAGGSLRLSCAASGRTLWYYTMGWYRQAPGKERELVADITRGTSTNYADSVKGRFTISRDNAKNTVYLQMNSLKPEDTAVYHCNRAHGRSRYSRDYDSWGQGTQVTVSS
2. QVQLVESGGGLLQAGGSLSLSCAASGFTFNRNAMGWYRQAPGKERELVAAISWSGGSTYYADSVKGRFTISRDNAKNTVYLQMNSLKPEDTAVYYCAKGYRRVYSMDWGQGTQVTVSS
3. QVQLVESGGGLVQAGGSLRLSCAASGRTFVNNAMGWYRQAPGKERELVAAISQSGSRTYYADSVKRRFTISRDNAKNSVYLQMNSLNTEDTAVYDCAARGARSSTSDDWGQGTQVTVSS

["low polyreactivity", "low polyreactivity", "high polyreactivity"]

Each sequence below has a recorded value; state its polyreactivity (PSR sort gate).
1. QVQLVESGGGLVQAGGSLRLSCAASGRTFTRYAMGWYRQAPGKERELVAAITSSGRTYYADSVKGRFTISRDNAKNTVYLQMNSLKPEDTAVYYCAKYRANALNYANRGAGDYWGQGTQVTVSS
2. QVQLVESGGGLVQAGGSLRLSCAASGRTFLYNAMGWYRQAPGKERELVAGITQSGSSTYYADSVKGRFTISRDNAKNTVYLQMNSLKPEDTAVYYCAKVLYRRGYKFDYWGQGTQVTVSS
3. QVQLVESGGGLVQAGGSLRLSSAASGSTFNSYAMGWYRQAPGKERELVAGITSRGTSTYYADSVKGRFTISRDNAKNTVYLQMNSLKPEDTAVYYCNKYHYWASPMNYWGHGTQVTVSS
4. QVQLVESGGGLVQAGGSLRLSCAASGFTFYLYAMGWYRHAPGKERELVAAISVDGGSTYYADSVKGRFTISRDNAKNTVYLQMNSLKPEDTAVYYCAARLYGRYRYDYWGQGTQVTVSS
5. QVQLVESGGGLVQAGGSLRLSCAASGSTFRTYAMGWYRQAPGKERELVAAISRSGGSTYYADSVKGRFTISRDNAKNTFYLQMNSLKPEDTAVYYCAARGGRGWTPSDYWGQGTQVTVSS
6. QVQLVESGGGLVQAGGSLRLSCAASGTFKWYAMGWYRQAPGKERELVAVISSSGGTTSYADSVKGRFTITRDNAKNTVYLQMNSLKPEDTAVYYCNRVWSTSMDYWGQGTQVTVSS
7. QVQLVESGGGLVQAGGSLRLSCAASGRILADNAMGWYRQAPGKERELVAAISESGGSTYYADSVKGRFTISRDNAKNTVYLQMNSLKAEDTAVYYCAADTASIYYEYYYWGQGTQVTVSS

high polyreactivity
low polyreactivity
high polyreactivity
low polyreactivity
high polyreactivity
high polyreactivity
low polyreactivity

Each sequence below has a recorded value; state its polyreactivity (PSR sort gate).
1. QVQLVESGGGLVQAGGSLRLSCAASGRIFTTYAMGWYRQAPGKEMELVAAIDYSDGSTYYADSVKGRFTISRDNAKNTVYLQMNSLNPEDTAVYYCAADGTYVWGSEEGNYWGQGTQVTVSS
2. QVQLVESGGGLVQAGGSLRLSCAASGRTFRLNAMGWYRQAPGKERELVAAINTGGGTYYADSVKGRFTISRDNAKNSVYLQMNSLKPEDTAVYYCNACTRYGSFSYVKYDWGQGTQVTVSS
3. QVQHVESGGGLVQAGGSLRLSCAASGFIFRRNVMGWYRQAPGKERELVAAISNSGGSTYYADSVKGRFTISRDNAKNTVYLQMNSLKPEDTAVYYCAAVYSYWGRYFEYGYWGQGTKVTVSS
4. QVQLVESGGGLVQAGASLRISCAASGRIFGRNAMGWYRQEPGIEREFVARIRTSGGSTYNADSVKGRFTISRDNAKNTVYLQMNSLKPEDTAVYYCAAAVYTSARGYDYWGQGTQVTLSS
5. QVQLVETGGGLVQAGGSLRLSCAASGSIADVYAMGWYRQAPGKERELVAAITSGASTYYADSVKGRFTISRDNAKNTVYLQMNSLKPEDTAVYYCTKSAAITGNGHMDYWGQGTQVTVSS
6. QVQLVESGGGLVQEGGILRLICAASGIIFPIYAMGWYRQAPGKERELVAAISQSGASTYYADSVKGRFTISRDNAKNTVYLALNSLKPEDTAVYYCAALNGDGPWQLSSEEFVYWGQGTQVTVSS

low polyreactivity
high polyreactivity
high polyreactivity
high polyreactivity
low polyreactivity
low polyreactivity
